src = patent US20160257651A1

# STUDY SYSTEM: GyrA (S84L) + GyrB (wt) (Staphylococcus aureus, UniProt P20831, S84L)
# Construct: made in house; host or cells: E. coli BL21(DE3)
# PROTOCOL DESCRIPTION: DNA cleavage assay using DNA gyrase
# Assay type: biochemical
# DETAILS: IC50, GyrA (S84L) + GyrB (wt); calculated from the ratio of cleaved DNA
# Method: To the culture medium of the resulting transformed Escherichia coli 1 mM isopropyl-8-thiogalactopyranoside (produced by Wako Pure Chemical Industries) was added to induce expression of maltose-binding GyrA(wt), maltose-binding GyrB(wt), or maltose-binding mutant GyrA(S84L), and the bacterium was cultured overnight at 25° C. Then, each disrupted cell suspension was added to a column filled with an amylose resin covalently bound with maltose (produced by Novagen). […]
REPORTED ENDPOINT: IC50 (µM)

COMPOUND	REPORTED ENDPOINT	VALUE MEASURED
O=c1cc(CO)c2cc(F)c(-c3ccc(O)cc3)cc2n1C1CC1 [J-131CP]	IC50	3.07
